Reported values of Emax, cell killing of LS174T cells for individual entries
study system: T1, human CEA on cells (MKN45, LOVO, NCI-H2122, LS174T, CT26/CEA) (human, UniProt P06731 35-685)
T1 sequence: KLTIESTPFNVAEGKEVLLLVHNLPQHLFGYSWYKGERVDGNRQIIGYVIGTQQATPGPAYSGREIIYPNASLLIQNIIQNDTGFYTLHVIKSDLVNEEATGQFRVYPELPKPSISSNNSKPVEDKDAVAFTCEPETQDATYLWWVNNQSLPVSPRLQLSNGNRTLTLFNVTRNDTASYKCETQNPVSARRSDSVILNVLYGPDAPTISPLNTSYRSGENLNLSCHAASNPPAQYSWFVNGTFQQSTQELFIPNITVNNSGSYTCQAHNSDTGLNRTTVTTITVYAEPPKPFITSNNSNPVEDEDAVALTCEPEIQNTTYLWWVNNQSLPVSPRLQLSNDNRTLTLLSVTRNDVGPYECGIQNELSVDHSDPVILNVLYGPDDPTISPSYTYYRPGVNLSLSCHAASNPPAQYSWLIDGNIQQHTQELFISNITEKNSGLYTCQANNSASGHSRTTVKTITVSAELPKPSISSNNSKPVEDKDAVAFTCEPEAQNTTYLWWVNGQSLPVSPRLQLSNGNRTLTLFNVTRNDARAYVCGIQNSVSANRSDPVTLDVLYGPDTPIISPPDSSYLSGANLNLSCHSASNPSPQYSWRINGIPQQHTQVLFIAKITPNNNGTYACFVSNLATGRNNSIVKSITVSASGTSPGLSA
assay name: cell-based or functional assay
# answer = number (no unit)

Answered cases to consult:
binder	Emax, cell killing of LS174T cells
BGA2588 (BGA5384 conjugated with DXD) (antibody, human IgG1, kappa, V domains shown, DXD linker-payload conjugated after reduction of the antibody, DAR 8 profile (structure only as a drawing in Table 18)) VH: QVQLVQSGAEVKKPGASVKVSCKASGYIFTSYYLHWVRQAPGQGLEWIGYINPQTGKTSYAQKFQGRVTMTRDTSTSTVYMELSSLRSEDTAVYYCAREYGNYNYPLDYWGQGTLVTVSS VL: DIQMTQSPSSLSASVGDRVTITCRASENQYGYLAWYQQKPGKVPKLLIYNYKNLVEGVPSRFSGSGSGTDFTLTISSLQPEDVATYYCQHHLGTPYTFGQGTKVEIKR	69.7
BGA8357 (antibody, human IgG1, kappa, V domains shown, linker-payload conjugated after reduction of the antibody, DAR 8 profile (structure only as a drawing in Table 18)) VH: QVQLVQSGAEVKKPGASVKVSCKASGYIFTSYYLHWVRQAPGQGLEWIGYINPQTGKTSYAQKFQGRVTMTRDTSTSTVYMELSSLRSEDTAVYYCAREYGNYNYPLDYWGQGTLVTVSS VL: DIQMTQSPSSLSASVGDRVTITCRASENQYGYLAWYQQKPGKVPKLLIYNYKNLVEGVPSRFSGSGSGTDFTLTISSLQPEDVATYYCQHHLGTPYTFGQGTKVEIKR	71.8

Data request, read-out Emax, cell killing of LS174T cells, for BGA0084 (antibody, human IgG1, kappa, V domains shown, linker-payload conjugated after reduction of the antibody, DAR 8 profile (structure only as a drawing in Table 18)) VH: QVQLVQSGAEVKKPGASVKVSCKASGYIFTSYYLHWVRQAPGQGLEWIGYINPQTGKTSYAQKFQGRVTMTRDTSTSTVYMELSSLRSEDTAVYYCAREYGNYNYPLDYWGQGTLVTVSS VL: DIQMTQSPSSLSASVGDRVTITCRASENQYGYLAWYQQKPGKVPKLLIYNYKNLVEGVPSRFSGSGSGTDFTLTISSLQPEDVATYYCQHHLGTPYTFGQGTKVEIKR 69.9
